Below, each entry is listed alongside its reported IC50.
Assay overview: Inhibition of Escherichia coli recombinant DNA gyrase-mediated supercoiling of relaxed pRSET A-DNA by agarose gel electrophoresis
Measurement name: IC50 (µM)

# Compound, Measurement name, Display unit, Measured value
measured = [
    ("CO[C@@H]1[C@@H](OC(=O)c2ccc(C)[nH]2)[C@@H](O)[C@@H](Oc2ccc3c(O)c(NC(=O)c4c[nH]c(C(=O)Nc5c(O)c6ccc(O[C@H]7OC(C)(C)[C@H](OC)[C@@H](OC(=O)c8ccc(C)[nH]8)[C@H]7O)c(C)c6oc5=O)c4C)c(=O)oc3c2C)OC1(C)C [COUMERMYCIN]", "IC50", "µM", 0.04),
    ("O=Cc1c[nH]nn1", "IC50", "µM", 737),
    ("O=c1ccc2nccc3c4ccccc4n1c23 [CANTHIN-6-ONE]", "IC50", "µM", 50),
    ("O=c1[nH]nc(-c2cc(-c3ccccc3)nc3ccccc23)o1", "IC50", "µM", 72),
    ("O=C(O)c1cn(C2CC2)c2cc(N3CCNCC3)c(F)cc2c1=O [CIPROFLOXACIN]", "IC50", "µM", 1.2),
    ("O=NNc1cnc(O)nc1O", "IC50", "µM", 338),
    ("NC(=O)c1[nH]cnc1N", "IC50", "µM", 814),
]
